# method.description: survival rescue of mitochondrial mutant cells in low glucose, primary screen, MELAS cybrids, Rieske KO mouse fibroblasts, CellTiter-Glo (AID 1508586);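 further: z relative to plate mean and SD of compound and empty wells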
# condition: MELAS cybrid survival, CellTiter-Glo 48 h
The source made the active and inactive calls.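 How the source made its calls: active means mean z-score across replicates of 1.96 or higher in either the MELAS or the Rieske mutant cell line; inactive means the rest.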
Choose the fitting class; nothing outside active, inactive is accepted.

Prompt: Please indicate how the test categorized CC[C@@H](CO)NC(=O)[C@@H]1C=C2c3cccc4[nH]cc(c34)C[C@H]2N(C)C1 .
Completion: inactive

Prompt: Please indicate how the test categorized CC(C)[C@@]12OC1C1O[C@]13[C@]1(OC1C[C@@H]1C4=C(CC[C@@]13C)C(=O)OC4)C2O (stereo partly drawn) .
Completion: inactive

Prompt: Please indicate how the test categorized CCN(CC)C(C)C(=O)c1ccccc1 (stereo not drawn) .
Completion: inactive

Prompt: Please indicate how the test categorized CC1CC[C@@]2(OC1)O[C@H]1C[C@H]3[C@@H]4CC=C5CC(O[C@@H]6OC(CO)C(O[C@@H]7OC(C)C(O)C(O)C7O)C(O)C6O[C@@H]6OC(C)C(O)C(O)C6O)CC[C@]5(C)[C@@H]4CC[C@]3(C)[C@@H]1C2C (stereo partly drawn) .
Completion: active

Prompt: Please indicate how the test categorized C[C@]12CC[C@@H]3c4ccc(OC(=O)N(CCCl)CCCl)cc4CC[C@H]3[C@@H]1CC[C@@H]2O .
Completion: inactive

Prompt: Please indicate how the test categorized CCCN1CCO[C@@H]2c3cc(O)ccc3OC[C@@H]21 .
Completion: inactive

Prompt: Please indicate how the test categorized Cc1sc2c(c1C)C(c1ccc(Cl)cc1)=NC(CC(N)=O)c1nnc(C)n1-2 (stereo not drawn) .
Completion: inactive

Prompt: Please indicate how the test categorized Clc1ccc(C(Cn2ccnc2)OCc2ccc(Sc3ccccc3)cc2)c(Cl)c1 (stereo not drawn) .
Completion: inactive

====

# method.description: stimulators of nuclear beta-catenin in C2C12, primary screen, imaging, WNT3A-conditioned medium, mouse C2C12, NPC library (AID 1117326); further: reference of the scale not given here
# condition: stimulation, at 2 µM, stronger effect = higher value
Consider the following compounds; for each one, report its nuclear beta-catenin stimulation.
Answers are plain numbers, in %.

Could you report nuclear beta-catenin stimulation for every entry in the following list?
1. CC(C)c1cccc(C(C)C)c1O
2. CCCC[N+]1(C)[C@@H]2CC(OC(=O)[C@H](CO)c3ccccc3)C[C@H]1[C@@H]1O[C@@H]12 (some centres undefined)
3. O=C1OC(CCN2CCCCC2)OC1(c1ccccc1)c1ccccc1 (centres undefined)
4. Cc1ncsc1CCCl
5. Clc1ccc(CSC(Cn2ccnc2)c2ccc(Cl)cc2Cl)cc1 (centres undefined)
6. O=C(NC(O)C(Cl)(Cl)Cl)NC(O)C(Cl)(Cl)Cl (centres undefined)
7. CNC(C)[C@@H](O)c1ccc(O)cc1 (some centres undefined)

Completion:
2.2
-0.2
0.5
2.4
1.5
-2.1
1.3

Could you report nuclear beta-catenin stimulation for every entry in the following list?
1. CN(C)C(=S)SSC(=S)N(C)C
2. C[C@]12C=CC(=O)C=C1CC[C@@H]1[C@@H]2CC[C@@]2(C)[C@H]1CC[C@]2(C)O
3. CN[C@@H](C)[C@H](O)c1ccccc1
4. O=c1ccc2cc(O[C@@H]3O[C@H](CO)[C@H](O)[C@H](O)[C@H]3O)c(O)cc2o1
5. C[C@]12CC[C@H]3[C@@H](CC=C4C[C@@H](O)CC[C@@]43C)[C@@H]1CC[C@@H]2O

Completion:
[48.7, 2.4, 0.6, -0.5, -0.3]

Could you report nuclear beta-catenin stimulation for every entry in the following list?
1. CCN(Cc1ccc(Cl)nc1)/C(=C/[N+](=O)[O-])NC
2. C=CCN1CC[C@]23CCCC[C@H]2[C@H]1Cc1ccc(O)cc13
3. O=c1[nH]c2ccccc2n1CCCN1CCC(n2c(=O)[nH]c3cc(Cl)ccc32)CC1
4. C[N+]1(CCC(C(N)=O)(c2ccccc2)c2ccccc2)CCCCC1
5. C[C@]12CC[C@@H]3c4ccc(OC(=O)N(CCCl)CCCl)cc4CC[C@H]3[C@@H]1CC[C@@H]2O
6. c1cc2c(c(N3CCNCC3)c1)OCCO2
7. CCOC(=O)c1cncn1C(C)c1ccccc1 (centres undefined)
8. CCO[C@H]1O[C@@H]2OC3(C)CC[C@H]4[C@H](C)CC[C@@H]([C@H]1C)[C@@]24OO3

Completion:
[1.1, 0.3, 0.9, 0.3, 0.4, 0.7, 3.6, 25.2]

Could you report nuclear beta-catenin stimulation for every entry in the following list?
1. O=C1NCN(c2ccccc2)C12CCN(CC1COc3ccccc3O1)CC2 (centres undefined)
2. CCCN1CCC[C@@H]2Cc3nc(N)ncc3C[C@H]21
3. O=C(NCNC(=O)NC1C(=O)NC(=O)N1CO)NC1C(=O)NC(=O)N1CO (centres undefined)
4. Fc1ccc(C(OCCN2CCN(CCCc3ccccc3)CC2)c2ccc(F)cc2)cc1
5. ClCCCN1CCN(c2cccc(Cl)c2)CC1
6. c1ccc2nc(N3CCNCC3)ccc2c1

Completion:
1: 0.8; 2: -0.2; 3: 0.2; 4: -0.6; 5: -2.6; 6: -1.9
